Origin of values: patent US11279733B2

// reported CC50 at 24 h for each item listed
# Method Summary: in vitro
# Run Parameters: human
# Method: Cytotoxicity of the synthesised peptides was evaluated by comparison with commercially available colistin (polymyxin E), polymyxin B (Sigma chemical Co., St. Louis, Mo., U.S.A.) and synthetic octapeptin C4 by conducting lactate dehydrogenase (LDH) assay. CC50 values calculated based on curve fitting of dose dependent inhibition of cell growth represented the cytotoxicity of the peptide. […]
Starred links: 1 amine or outer side, 2 acyl side, 3 side chain; linkers in the order of their positions; H or OH if unused. Positions of bridges follow the written chain, without caps; N, C: chain ends. Non-standard residues stand in square brackets, D forms with d. Residues, ends and D or L forms follow the SMILES beside them. *: point of attachment. Decanoyl(3R-OH) = CCCCCCC[C@@H](O)CC(=O)*; azaDab = NCCN(N[*:1])C(=O)[*:2]; dDab = NCC[C@@H](N)C(=O)O; Dab = NCC[C@H](N)C(=O)O; X5 = O=C(CCCCCCCO)*

Examples from the recorded data:
Prompt: Annotate the molecule CCCCCCC[C@@H](O)CC(=O)N[C@H](CCN)C(=O)N[C@H]1CCNC(=O)[C@H](CC(C)C)NC(=O)[C@H](CCNC(=O)[C@@H](N)CCCNC(=N)N)NC(=O)[C@H](CCN)NC(=O)[C@H](CC(C)C)NC(=O)[C@@H](Cc2ccccc2)NC(=O)[C@H](CCN)NC1=O [compound 6653] ({Decanoyl(3R-OH)}-[dDab][Dab][Dab][dF]L[Dab][Dab](Arg)L; lactam 2-C) with its measured CC50 at 24 h.
Response: > 300 µM

Prompt: Given CC(C)C[C@@H]1NC(=O)[C@H](CCN)NC(=O)[C@H](CCN)NC(=O)[C@H](Cc2ccccc2)NC(=O)[C@@H](CC(C)C)NC(=O)[C@H](CCN)NC(=O)[C@@H](NC(=O)[C@@H](CCN)NC(=O)CCCCCCCO)CCNC1=O [compound 6514] (X5-[dDab][Dab][Dab][dL]F[Dab][Dab]L; lactam 2-C) , respond with its CC50 at 24 h.
Response: > 300 µM

We now examine a further molecule.
Prompt: Write down CC50 at 24 h measured for item CCCCCCC[C@@H](O)CC(=O)N[C@H](CCN)C(=O)N[C@H]1CCNC(=O)[C@H](CC(C)C)NC(=O)[C@H](CCN)NC(=O)N(CCN)NC(=O)[C@H](CC(C)C)NC(=O)[C@@H](Cc2ccccc2)NC(=O)[C@H](CCN)NC1=O [compound 8641] ({Decanoyl(3R-OH)}-[dDab][Dab][Dab][dF]L[azaDab][Dab]L; lactam 2-C)
Response: > 300 µM

====

Catalogue of MIC P. aeruginosa GN_043, PmxR readings, one per entry.
# Test system: P. aeruginosa GN_043, PmxR
# Run Parameters: P. aeruginosa GN_043, PmxR
Positions of bridges follow the written chain, without caps; N, C: chain ends. Non-standard residues stand in square brackets, D forms with d. Residues, ends and D or L forms follow the SMILES beside them. *: point of attachment. Decanoyl(3R-OH) = CCCCCCC[C@@H](O)CC(=O)*; dBip = N[C@H](Cc1ccc(-c2ccccc2)cc1)C(=O)O; d3Pal = N[C@H](Cc1cccnc1)C(=O)O; Nonanoyl = CCCCCCCCC(=O)*; dDab = NCC[C@@H](N)C(=O)O; dDap = NC[C@@H](N)C(=O)O; Dab = NCC[C@H](N)C(=O)O

Prompt: State its MIC P. aeruginosa GN_043, PmxR: CCCCCCC[C@@H](O)CC(=O)NCC(=O)N[C@H]1CCNC(=O)[C@H](CC(C)C)NC(=O)[C@H](CCN)NC(=O)[C@H](CCN)NC(=O)[C@H](Cc2ccccc2)NC(=O)[C@@H](CC(C)C)NC(=O)[C@H](CCN)NC1=O [compound 6431] ({Decanoyl(3R-OH)}-G[Dab][Dab][dL]F[Dab][Dab]L; lactam 2-C)
Response: 8 µg/mL

***
Prompt: Give the reported value of MIC P. aeruginosa GN_043, PmxR for this record: CCCCCCC[C@@H](O)CC(=O)N[C@@H](CCN)C(=O)N[C@@H]1CCNC(=O)[C@H](CC(C)C)NC(=O)[C@H](CCN)NC(=O)[C@H](CCN)NC(=O)[C@H](CC(C)C)NC(=O)[C@@H](Cc2ccc(-c3ccccc3)cc2)NC(=O)[C@H](CCN)NC1=O [compound 6661] ({Decanoyl(3R-OH)}-[Dab][dDab][Dab][dBip]L[Dab][Dab]L; lactam 2-C)
Response: >32 µg/mL

Prompt: Tell us which MIC P. aeruginosa GN_043, PmxR value is on record for CCCCCCCCC(=O)N[C@H](CN)C(=O)N[C@H]1CCNC(=O)[C@H](CC(C)C)NC(=O)[C@H](CCN)NC(=O)[C@H](CCN)NC(=O)[C@H](CC(C)C)NC(=O)[C@@H](Cc2ccccc2)NC(=O)[C@H](CCN)NC1=O [compound 9191] (Nonanoyl-[dDap][Dab][Dab][dF]L[Dab][Dab]L; lactam 2-C)
Response: 2 µg/mL

Prompt: Indicate the recorded MIC P. aeruginosa GN_043, PmxR value for this compound: CCCCCCC[C@@H](O)CC(=O)N[C@H](CN)C(=O)N[C@H]1CCNC(=O)[C@H](CC(C)C)NC(=O)[C@H](CCN)NC(=O)[C@H](CCN)NC(=O)[C@H](CC(C)C)NC(=O)[C@@H](CC(C)C)NC(=O)[C@H](CCN)NC1=O [compound 8977] ({Decanoyl(3R-OH)}-[dDap][Dab][Dab][dL]L[Dab][Dab]L; lactam 2-C)
Response: 2 µg/mL

Prompt: Recall and state the measured MIC P. aeruginosa GN_043, PmxR for CCCCCCC[C@@H](O)CC(=O)N[C@@H](CCN)C(=O)N[C@H]1CCNC(=O)[C@H](CC(C)C)NC(=O)[C@H](CCN)NC(=O)[C@H](CCN)NC(=O)[C@H](C)NC(=O)[C@@H](Cc2ccccc2)NC(=O)[C@H](CCN)NC1=O [compound 5563] ({Decanoyl(3R-OH)}-[Dab][Dab][Dab][dF]A[Dab][Dab]L; lactam 2-C) .
Response: >32 µg/mL

Prompt: Kindly indicate its recorded MIC P. aeruginosa GN_043, PmxR. Item: CCCCCCC[C@@H](O)CC(=O)N[C@H](Cc1cccnc1)C(=O)N[C@H]1CCNC(=O)[C@H](CC(C)C)NC(=O)[C@H](CCN)NC(=O)[C@H](CCN)NC(=O)[C@H](Cc2ccccc2)NC(=O)[C@@H](CC(C)C)NC(=O)[C@H](CCN)NC1=O [compound 6430] ({Decanoyl(3R-OH)}-[d3Pal][Dab][Dab][dL]F[Dab][Dab]L; lactam 2-C)
Response: 16 µg/mL
